# System: MDA-MB-435
# assaySummary: In vivo percent T/C against MDA-MB-435 human breast carcinoma cells implanted sc in mice at a dose 10 umol/kg
# Type: functional
parameterMeasured: T/C

Could you tell me which T/C is on file for CO[C@@H](C(=O)NC1CC[C@@H](OC(=O)C2CCCCCC2)CNC1=O)[C@H](O)[C@@H](O)[C@H](O)/C=C/C(C)(C)C (stereo partly specified) ?
<39%

Also need CO[C@@H](C(=O)NC1CC[C@@H](OC(=O)CCc2ccccc2)CNC1=O)[C@H](O)[C@@H](O)[C@H](O)/C=C/C(C)(C)C (stereo partly specified) , thanks.
<53%

Also need CCCCCCCCCCCCCC(=O)O[C@H]1CCC(NC(=O)[C@H](OC)[C@H](O)[C@@H](O)[C@H](O)/C=C/C(C)(C)C)C(=O)N(C)C1 (stereo partly specified) , thanks.
<58%

Also need CO[C@@H](C(=O)NC1CC[C@@H](OC(=O)/C=C/c2ccccc2)CNC1=O)[C@H](O)[C@@H](O)[C@H](O)/C=C/C(C)(C)C (stereo partly specified) , thanks.
<64%

Also need CCCCCCCCCCCCCC(=O)O[C@@H]1CCC(NC(=O)[C@H](OC)[C@H](O)[C@@H](O)[C@H](O)/C=C/C(C)(C)C)C(=O)NC1 (stereo partly specified) , thanks.
<41%

Also need CCCCCCCCCCOc1ccc(C(=O)O[C@@H]2CCC(NC(=O)[C@H](OC)[C@H](O)[C@@H](O)[C@H](O)/C=C/C(C)(C)C)C(=O)NC2)cc1 (stereo partly specified) , thanks.
<64%
